Reference source: PubChem BioAssay (NCI)

# Tested on: A498 renal
# PROTOCOL_DESCRIPTION: NCI tumour cell line growth inhibition, 48 h
Catalogue of TGI values

Below are worked cases with known answers.
Cc1ccc(OCC2OC(n3cnc4c(Cl)ncnc43)CC2Oc2ccc(C)cc2)cc1 (stereo not given)	> 70.8 µM
Cc1occ2c1C(=O)CC1C2[C@@H](O)CC2C(C)(C)CCC[C@]12C (stereo not given in full)	> 100 µM
CC(=O)OC(C)C(OC(C)=O)C(OC(C)=O)C(/C=C/C1CC=CC(=O)O1)OC(C)=O (stereo not given)	45.3 µM
CNC(=S)N/N=C(\C)c1nc2ncccc2[nH]1	> 100 µM
Nc1ccc(C(=O)NN2C(=O)C(Cl)C2c2cccc(O)c2)cc1 (stereo not given)	58.1 µM

input: I would be grateful if you could share the reported TGI for COc1cccc(C2C(C#N)=C(N)Oc3c2ccc2ccccc32)c1 (stereo not given) .
output: 13.6 µM

input: I would be grateful if you could share the reported TGI for CCOP(=O)(OCC)C1(O)CC(n2cc(C)c(=O)[nH]c2=O)OC1CO (stereo not given) .
output: > 100 µM

input: I would be grateful if you could share the reported TGI for CN(C)C(=O)C(F)(F)C(c1ccc(Br)cc1)C1C(=O)N(C)C(=O)N(C)C1=O (stereo not given) .
output: > 100 µM

input: I would be grateful if you could share the reported TGI for N=C(N)SCCCN .
output: > 100 µM

input: I would be grateful if you could share the reported TGI for CC(=O)CC(C)(C)NC(=O)[C@@]1(O)CC[C@H]2[C@@H]3CCC4=CC(=O)CC[C@@H]4[C@H]3CC[C@@]21C .
output: > 100 µM

* * *

# Tested on: MALME-3M melanoma
# PROTOCOL_DESCRIPTION: NCI tumour cell line growth inhibition, 48 h
Catalogue of TGI values

COc1nc(OC)nc(-c2cccc(F)c2)n1	31.2 µM
CN(/N=N/c1nc[nH]c1C(N)=O)C1CCCCC1	> 100 µM
CC(=O)Nc1ccc(C(=O)NN2C(=O)C(Cl)C2c2ccc(O)cc2)cc1 (stereo unspecified)	> 100 µM
CC(=O)OC(C)C(OC(C)=O)C(OC(C)=O)C(/C=C/C1CC=CC(=O)O1)OC(C)=O (stereo unspecified)	> 100 µM

input: I would be grateful if you could share the reported TGI for COc1cc(OC)c2c(O)c(S(=O)(=O)c3ccc(C)cc3)c(=O)oc2c1 .
output: > 100 µM

input: I would be grateful if you could share the reported TGI for Cc1ccc(S(=O)(=O)c2ccc([N+](=O)[O-])o2)cc1 .
output: 2.64 µM

* * *

# System: IGROV1 ovarian
# PROTOCOL_DESCRIPTION: NCI tumour cell line growth inhibition, 48 h; in the data active means GI50 below about 0.43 µM; inactive means the rest
Would you mind answering with one of these outcomes? y (active), n (inactive)

input: Lab log entry: CC(=O)O.CC(=O)O.CC(=O)O.CC(=O)O.[Rh].[Rh] — outcome as called in the assay?
output: n

input: Lab log entry: COc1ccc2c(c1)C(=O)c1c-2c(N2CCNCC2)nc2ccccc12 — outcome as called in the assay?
output: n

input: Lab log entry: CC/C=C\C/C=C/C=C1/C(=O)C=C[C@@H]1C/C=C\CCCC(=O)OC — outcome as called in the assay?
output: n

input: Lab log entry: Cc1c2ccncc2c(C)c2c1c1cc(CO)ccc1n2C — outcome as called in the assay?
output: y

input: Lab log entry: OCc1ccc(N2CCCC2)cc1Cl — outcome as called in the assay?
output: n

input: Lab log entry: CC(=O)OC(C)C(OC(C)=O)C(OC(C)=O)C(/C=C/C1CC=CC(=O)O1)OC(C)=O (configuration not stated) — outcome as called in the assay?
output: n

input: Lab log entry: CN1CCN(c2cc3nc4ccccc4n(-c4ccc(Cl)cc4)c-3cc2=N)CC1 — outcome as called in the assay?
output: n

* * *

# Tested on: SN12C renal
# PROTOCOL_DESCRIPTION: NCI tumour cell line growth inhibition, 48 h
Catalogue of TGI values

COC/N=C(/N)NC#N	> 100 µM
CCOP(=O)(OCC)C1(O)CC(n2cc(C)c(=O)[nH]c2=O)OC1CO (stereo unspecified)	> 100 µM
COc1cc(/C=N\NC(=O)C[N+](C)(C)C)cc(OC)c1OC	> 10 µM
C/C(=C\Cc1cc(O)ccc1O)CCc1c(C)c(O)c(O)c(C=O)c1C	77.8 µM
COc1ccc(/C(=N/Nc2nc3ccccc3[nH]2)C(=O)O)cc1	> 100 µM

Read the next record carefully.
input: I would be grateful if you could share the reported TGI for C=CC(C)(C)c1cc([C@@H]2COc3cc(O)ccc3C2=O)c(O)c(O)c1OC .
output: 37.6 µM

* * *

Catalogue of TGI values
# System: KM12 colon
# PROTOCOL_DESCRIPTION: NCI tumour cell line growth inhibition, 48 h

Below are worked cases with known answers.
COc1ccc(/C(=N/Nc2nc3ccccc3[nH]2)C(=O)O)cc1	> 100 µM
COCCOCOC(C)(C)[C@H](CCOC(C)=O)O[Si](c1ccccc1)(c1ccccc1)C(C)(C)C	> 100 µM

Read the next record carefully.
input: I would be grateful if you could share the reported TGI for O=C(NCC(=O)N1CCOC1=O)OCc1ccccc1 .
output: > 100 µM

* * *

Catalogue of GI50 values
# System: UO-31 renal
# PROTOCOL_DESCRIPTION: NCI tumour cell line growth inhibition, 48 h

Below are worked cases with known answers.
CCN1C(=O)N(CC)C2C1NN=c1s/c(=C\c3ccc[nH]3)c(=O)n12 (stereo not given)	719 nM
COc1cc(OC)cc(-c2n/c(=C\c3c(O)[nH]c4ccc(Cl)cc34)cc3c2=Nc2ccccc2-3)c1	12500 nM
CC1=C(C(=O)Nc2ccc(F)c(Cl)c2)C(c2ccccc2O)NC(=O)N1 (stereo not given)	80700 nM

input: I would be grateful if you could share the reported GI50 for O=c1cccc(C#CC#CCCCO)o1 .
output: 2170 nM

input: I would be grateful if you could share the reported GI50 for Oc1c(Cl)cc(Cl)c2cccnc12 .
output: 2500 nM

* * *

# System: SK-MEL-28 melanoma
# PROTOCOL_DESCRIPTION: NCI tumour cell line growth inhibition, 48 h
RECORDED_METRIC: TGI (µM)
Just the number please, in µM, no unit attached.

Below are worked cases with known answers.
CCn1c2ccc(O)c(C(=O)OC)c2c2cc3ccccc3c(O)c21	87.4
COc1ccc2c(c1)/C(=C\c1c[nH]c3ccc(OC)cc13)C(=O)N2	16.7
NNc1c2ccccc2nc2ccccc12	60.7

Read the next record carefully.
input: Lab request: please report TGI under test system SK-MEL-28 melanoma for O=S(=O)(NC1=NCCN1C(=S)SN1CCn2c1nsc2=S)c1cccc(OC(F)(F)F)c1
output: 32.6

* * *

# Tested on: RXF 393 renal
# PROTOCOL_DESCRIPTION: NCI tumour cell line growth inhibition, 48 h; in the data active = GI50 below about 0.43 µM; inactive = the rest
Would you mind answering with one of these outcomes? Y (active), N (inactive)

Solved cases (3 shown):
Nc1ncccc1-c1nc2ccc(-c3ccccc3)nc2n1-c1ccc(C2(N)CCC2)cc1	Y
Cc1cccc2c(Nc3ccc(NS(C)(=O)=O)cc3)c3ccc([N+](=O)[O-])cc3nc12	N
CCN(CC)CCCC(C)Nc1c(-c2ccccc2)cnc2cc(Cl)ccc12 (stereo not drawn)	N

input: Lab log entry: COc1cccc(CC(C)=C(c2ccc(OCCCN(C)C)cc2)c2ccc(OCCCN(C)C)cc2)c1 — outcome as called in the assay?
output: N

input: Lab log entry: CC(=O)[CH-]C(=O)Nc1ccccc1.CC(=O)[CH-]C(=O)Nc1ccccc1.CC[O-].CC[O-].[Ti+4] — outcome as called in the assay?
output: N

input: Lab log entry: Cc1cc(NC(=O)c2cnc(N3CCN(CCOCCOCCOCCOCCC(=O)N[C@H](C(=O)N4C[C@H](O)C[C@H]4C(=O)N[C@@H](C)c4ccc(-c5scnc5C)cc4)C(C)(C)C)CC3)cn2)c2ncccc2c1 — outcome as called in the assay?
output: N

input: Lab log entry: COc1cc(OC)cc(-c2n/c(=C\c3c(O)[nH]c4ccc(Cl)cc34)cc3c2=Nc2ccccc2-3)c1 — outcome as called in the assay?
output: N

input: Lab log entry: COc1cccc(C2C(C#N)=C(N)Oc3c2ccc2ccccc32)c1 (stereo not drawn) — outcome as called in the assay?
output: Y

* * *

# Test system: SK-MEL-28 melanoma
# PROTOCOL_DESCRIPTION: NCI tumour cell line growth inhibition, 48 h
Catalogue of TGI values

COC1(C)C(=O)N2C1N(C(=O)OCc1ccccc1)CC2(C)C (centres undefined)	> 100 µM
Cc1cc(NC(=O)c2cnc(N3CCN(CCOCCOCCOCCOCCC(=O)N[C@H](C(=O)N4C[C@H](O)C[C@H]4C(=O)N[C@@H](C)c4ccc(-c5scnc5C)cc4)C(C)(C)C)CC3)cn2)c2ncccc2c1	6.7 µM
COc1ccc(/C(=N/Nc2nc3ccccc3[nH]2)C(=O)O)cc1	> 100 µM

input: Lab request: please report TGI under test system SK-MEL-28 melanoma for CC(NNC(=O)c1ccncc1)c1ccc(Cl)c(Cl)c1 (centres undefined)
output: > 100 µM
